- subject of test: hOT7T175 (Homo sapiens, UniProt Q969F8, L364H)
- Sequence (Q969F8 whole entry L364H): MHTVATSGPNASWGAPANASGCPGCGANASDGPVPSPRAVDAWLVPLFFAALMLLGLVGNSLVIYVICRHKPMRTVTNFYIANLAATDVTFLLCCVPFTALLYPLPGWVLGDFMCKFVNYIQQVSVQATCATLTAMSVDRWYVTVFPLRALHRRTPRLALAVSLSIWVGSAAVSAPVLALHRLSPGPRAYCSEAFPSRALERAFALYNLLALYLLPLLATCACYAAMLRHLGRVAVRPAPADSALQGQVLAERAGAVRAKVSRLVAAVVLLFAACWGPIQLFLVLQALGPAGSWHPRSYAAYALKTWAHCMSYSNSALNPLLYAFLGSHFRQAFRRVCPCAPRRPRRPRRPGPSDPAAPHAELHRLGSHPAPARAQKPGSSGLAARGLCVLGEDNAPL
- assay: Intracellular Ca ion level-increasing activity using FLIPR in hOT7T175/CHO
- Type: cell-based
- Set-up: expressed in transfected cells; host or cells: CHO/dhfr- cells, obtained from ATCC
- applied conditions: relative, Metastin (1-54) = 1
Numbered stars: 1 amine (or outer) side, 2 acyl side, 3 side chain; on linkers, the order of the positions; unused ones are H or OH. Square brackets hold non-standard residues; d marks the D form. Peptide text beside a SMILES is read from it. * marks the point of attachment. X10 = NC(=O)C[C@@H](C(=O)[*:2])N(C[C@@H](N)Cc1ccc(O)cc1)[*:1]; Propanoyl(3-indol-3-yl) = O=C(CCc1c[nH]c2ccccc12)*; Arg(Me) = CNC(=N)NCCC[C@H](N)C(=O)O; 4Pal = N[C@@H](Cc1ccncc1)C(=O)O; azaGly = NNC(=O)O
Measured Specific Activity (intracellular Ca ion level-increasing activity), listed per entry for reference.
readout kind: Specific Activity (intracellular Ca ion level-increasing activity)

compound="CNC(=N)NCCC[C@H](NC(=O)[C@H](CC(C)C)NC(=O)NNC(=O)[C@H](Cc1ccccc1)NC(=O)[C@H](CO)NC(=O)[C@H](CC(N)=O)NC(=O)[C@@H](Cc1c[nH]c2ccccc12)NC(=O)[C@H](CC(N)=O)NC[C@@H](N)Cc1ccc(O)cc1)C(=O)N[C@@H](Cc1ccccc1)C(N)=O [Compound No. 300] (H-[X10][dW]NSF[azaGly]L[Arg(Me)]F-NH2)" result=5
compound="CC(C)C[C@H](NC(=O)CNC(=O)[C@H](Cc1ccccc1)NC(=O)[C@H](CO)NC(=O)[C@H](CC(N)=O)NC(=O)[C@H](Cc1c[nH]c2ccccc12)NC(=O)[C@H](CC(N)=O)NC(=O)[C@@H](N)Cc1ccc(O)cc1)C(=O)N[C@@H](CCCNC(=N)N)C(=O)N[C@@H](Cc1ccncc1)C(N)=O [Compound No. 17] (H-YNWNSFGLR[4Pal]-NH2)" result=5
compound="CNC(=N)NCCC[C@H](NC(=O)[C@H](CC(C)C)NC(=O)NNC(=O)[C@H](Cc1ccccc1)NC(=O)[C@H](CO)NC(=O)[C@H](CC(N)=O)NC(=O)CCc1c[nH]c2ccccc12)C(=O)N[C@@H](Cc1ccccc1)C(N)=O [Compound No. 260] ({Propanoyl(3-indol-3-yl)}-NSF[azaGly]L[Arg(Me)]F-NH2)" result=5

###

- subject of test: hOT7T175 (Homo sapiens, UniProt Q969F8, L364H)
- assay: Intracellular Ca ion level-increasing activity using FLIPR in hOT7T175/CHO
- Assay type: cell-based
- Set-up: expressed in transfected cells; host or cells: CHO/dhfr- cells, obtained from ATCC
- applied conditions: relative, Metastin (1-54) = 1
Numbered stars: 1 amine (or outer) side, 2 acyl side, 3 side chain; on linkers, the order of the positions; unused ones are H or OH. Square brackets hold non-standard residues; d marks the D form. Peptide text beside a SMILES is read from it. * marks the point of attachment. X5 = NC(=O)C[C@@H](CN([C@@H](Cc1c[nH]c2ccccc12)C(=O)[*:2])[*:1])N[*:3]; Acetyl(2-(4-imidazolyl)) = O=C(Cc1c[nH]cn1)*; 2Nal = N[C@@H](Cc1ccc2ccccc2c1)C(=O)O; Arg(Me) = CNC(=N)NCCC[C@H](N)C(=O)O; X3 = NC(=S)[C@H](Cc1ccccc1)N*; azaGly = NNC(=O)O
readout kind: Specific Activity (intracellular Ca ion level-increasing activity)

compound="CNC(=N)NCCC[C@H](NC(=O)[C@H](CC(C)C)NC(=O)NNC(=O)[C@H](Cc1ccccc1)NC(=O)[C@H](CO)NC(=O)[C@H](CC(N)=O)NC(=O)[C@H](Cc1ccccc1)NC(=O)[C@H](N)Cc1ccc(O)cc1)C(=O)N[C@@H](Cc1ccccc1)C(N)=O [Compound No. 254] (H-[dY]FNSF[azaGly]L[Arg(Me)]F-NH2)" result=1
compound="CC(C)C[C@H](NC(=O)CNC(=O)[C@H](Cc1ccccc1)NC(=O)[C@H](CO)NC(=O)[C@H](CC(N)=O)NC(=O)[C@H](Cc1c[nH]c2ccccc12)NC(=O)[C@H](CC(N)=O)NC(=O)[C@H](Cc1ccc(O)cc1)NC(=O)[C@H](CC(N)=O)NC(=O)[C@@H]1CCCN1C(=O)[C@@H](N)CC(C)C)C(=O)N[C@@H](CCCNC(=N)N)C(=O)N[C@@H](Cc1ccccc1)C(N)=O [Compound No. 32, reference compound]" result=10
compound="CC(C)C[C@H](NC(=O)CNC(=O)[C@H](Cc1ccccc1)NC(=O)[C@H](CO)NC(=O)[C@H](CC(N)=O)NC(=O)[C@H](Cc1c[nH]c2ccccc12)NC[C@H](CC(N)=O)NC(=O)[C@@H](N)Cc1ccc(O)cc1)C(=O)N[C@@H](CCCNC(=N)N)C(=O)N[C@@H](Cc1ccccc1)C(N)=O [Compound No. 295] (H-[X5](Tyr)NSFGLRF-NH2)" result=1
compound="CNC(=N)NCCC[C@H](NC(=O)[C@H](CC(C)C)NC(=O)CNC(=O)[C@H](Cc1ccccc1)NC(=O)[C@H](CO)NC(=O)[C@H](CC(N)=O)NC(=O)[C@@H](NC(=O)[C@H](CC(N)=O)NC(=O)[C@H](N)Cc1ccc(O)cc1)[C@@H](C)O)C(=O)N[C@@H](Cc1ccccc1)C(N)=O [Compound No. 205] (H-[dY]NTNSFGL[Arg(Me)]F-NH2)" result=10
compound=CC(C)C[C@H](NC(=O)CNC(=O)[C@H](Cc1ccccc1)NC(=O)[C@H](CO)NC(=O)[C@H](CC(N)=O)NC(=O)[C@H](Cc1c[nH]c2ccccc12)NC(=O)[C@H](CC(N)=O)NC(=O)[C@@H](N)Cc1ccc(O)cc1)C(=O)N[C@@H](CCNC(=N)N)C(=O)N[C@@H](Cc1ccccc1)C(N)=O result=3
compound="CC(C)C[C@H](NC(=O)CNC(=O)[C@H](Cc1ccc2ccccc2c1)NC(=O)[C@H](CO)NC(=O)[C@H](CC(N)=O)NC(=O)[C@H](Cc1c[nH]c2ccccc12)NC(=O)[C@H](CC(N)=O)NC(=O)[C@@H](N)Cc1ccc(O)cc1)C(=O)N[C@@H](CCCNC(=N)N)C(=O)N[C@@H](Cc1ccccc1)C(N)=O [Compound No. 152] (H-YNWNS[2Nal]GLRF-NH2)" result=5
compound=CC(C)C[C@H](NC(=O)CNC(=O)[C@H](Cc1ccc(F)cc1)NC(=O)[C@H](CO)NC(=O)[C@H](CC(N)=O)NC(=O)[C@H](Cc1c[nH]c2ccccc12)NC(=O)[C@H](CC(N)=O)NC(=O)[C@@H](N)Cc1ccc(O)cc1)C(=O)N[C@@H](CCCNC(=N)N)C(=O)N[C@@H](Cc1ccccc1)C(N)=O result=5
compound="CNC(=N)NCCC[C@H](NC(=O)[C@H](CC(C)C)NC(=O)NNC(=O)[C@H](Cc1ccccc1)NC(=O)[C@H](CO)NC(=O)[C@H](CC(N)=O)NC(=O)Cc1c[nH]cn1)C(=O)N[C@@H](Cc1ccccc1)C(N)=O [Compound No. 323] ({Acetyl(2-(4-imidazolyl))}-NSF[azaGly]L[Arg(Me)]F-NH2)" result=1
compound="CC(C)C[C@H](NC(=O)CNC(=O)[C@H](Cc1ccccc1)NC(=O)[C@H](CO)NC(=O)[C@H](CC(N)=O)NC(=O)[C@H](Cc1c[nH]c2ccccc12)NC(=O)[C@H](CC(N)=O)NC(=O)[C@H](N)Cc1ccc(O)cc1)C(=O)N[C@@H](CCCNC(=N)N)C(=O)N[C@@H](Cc1ccccc1)C(N)=S [Compound No. 146] (H-[dY]NWNSFGLR-X3)" result=10

meta.source: patent US8361968B2
